The measured values listed here are drawn from ChEMBL document CHEMBL1135371.

# measurement_target: 5-hydroxytryptamine receptor 4 (Cavia porcellus)
# procedure_text: Binding affinity towards 5-HT4 receptor in striatum membranes of guinea-pig brain was evaluated
# Format: cell membranes, Membrane
property_measured: Ki (nM)
Please state the figure in nM; there is no need to write the unit.

GET /values?readout=Ki&system=5-hydroxytryptamine receptor 4 (Cavia porcellus)&item= COc1cc(N)c(Cl)cc1C(=O)OC1CC2CCC1CN2C (stereo in doubt; syn)
240

====

# measurement_target: 5-hydroxytryptamine receptor 4 (Cavia porcellus)
# procedure_text: Binding affinity towards 5-hydroxytryptamine 4 receptor in striatum membranes of guinea-pig brain was evaluated
# Format: cell membranes, Membrane
Hi there, I'd appreciate the recorded pKi for every entry that follows.
The read-out pKi is expressed as -log10 of concentration in moles per litre.

Need pKi, item COc1cc(N)c(Cl)cc1C(=O)OC1CC2CCC1CN2C (stereo in doubt; anti)
7.08

Need pKi, item CN1[C@@H]2CC[C@H]1C[C@@H](OC(=O)c1c[nH]c3ccccc13)C2
6.90

====

# measurement_target: Serotonin 3 (5-HT3) receptor (Rattus norvegicus, UniProt P35563+Q9JJ16)
# procedure_text: Binding affinity towards 5-HT3 receptor in rat was evaluated
pKi: −log10 of the molar value.
Please use MET whenever pKi is not below 7, and NOT MET whenever it is.

Please indicate if the recorded pKi for COc1cc(N)c(Cl)cc1C(=O)OC1CC2CCC1CN2C (stereo in doubt; anti) meets or exceeds 7.
MET

Please indicate if the recorded pKi for COc1cc(N)c(Cl)cc1C(=O)OC1CC2CCC1CN2C (stereo in doubt; syn) meets or exceeds 7.
MET

Please indicate if the recorded pKi for COc1cc(N)c(Cl)cc1C(=O)OC1CC2CCC1N(C)C2 (stereo in doubt; syn) meets or exceeds 7.
NOT MET

Please indicate if the recorded pKi for COc1cc(N)c(Cl)cc1C(=O)NC1CC2CCC1N(C)C2 (stereo not given) meets or exceeds 7.
NOT MET

Please indicate if the recorded pKi for COc1cc(N)c(Cl)cc1C(=O)OC1CC2CCC1N(C)C2 (stereo in doubt; anti) meets or exceeds 7.
MET

====

Hi there, I'd appreciate the recorded IC50 for every entry that follows.
# measurement_target: D(2) dopamine receptor (Rattus norvegicus, UniProt P61169)
# Sequence (P61169 whole entry): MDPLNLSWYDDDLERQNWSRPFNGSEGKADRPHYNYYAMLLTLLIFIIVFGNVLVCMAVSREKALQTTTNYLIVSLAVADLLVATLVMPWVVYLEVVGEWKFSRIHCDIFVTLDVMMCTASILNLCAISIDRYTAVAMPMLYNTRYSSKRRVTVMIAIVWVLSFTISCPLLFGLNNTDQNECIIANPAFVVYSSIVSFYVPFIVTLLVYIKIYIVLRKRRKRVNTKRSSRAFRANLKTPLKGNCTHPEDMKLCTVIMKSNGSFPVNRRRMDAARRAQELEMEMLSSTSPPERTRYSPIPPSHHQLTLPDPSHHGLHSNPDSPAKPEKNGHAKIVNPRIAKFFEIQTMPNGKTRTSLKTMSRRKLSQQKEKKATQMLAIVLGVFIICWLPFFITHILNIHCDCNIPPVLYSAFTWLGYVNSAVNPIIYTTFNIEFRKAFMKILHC
# procedure_text: Binding affinity towards D2 receptor in rat was evaluated

Need IC50, item CN1C2CCCC1CC(NC(=O)c1nn(C)c3ccccc13)C2 (centres undefined) [GRANISETRON]
> 1 µM

Need IC50, item COc1cc(N)c(Cl)cc1C(=O)OC1CC2CCC1CN2C (stereo in doubt; syn)
> 1 µM

Need IC50, item COc1cc(N)c(Cl)cc1C(=O)OC1CC2CCC1N(C)C2 (stereo in doubt; syn)
> 1 µM

Need IC50, item COc1cc(N)c(Cl)cc1C(=O)NC1CC2CCC1N(C)C2 (centres undefined)
1 µM

====

# measurement_target: Serotonin 3 (5-HT3) receptor (Rattus norvegicus, UniProt P35563+Q9JJ16)
# procedure_text: Binding affinity towards 5-HT3 receptor in rat was evaluated
Hi there, I'd appreciate the recorded pIC50 for every entry that follows.
The read-out pIC50 is expressed as -log10 of concentration in moles per litre.

GET /values?readout=pIC50&system=Serotonin 3 (5-HT3) receptor (Rattus norvegicus, UniProt P35563+Q9JJ16)&item= COc1cc(N)c(Cl)cc1C(=O)NC1CC2CCC1CN2C (stereo in doubt; syn)
6.00

GET /values?readout=pIC50&system=Serotonin 3 (5-HT3) receptor (Rattus norvegicus, UniProt P35563+Q9JJ16)&item= COc1cc(N)c(Cl)cc1C(=O)NC1CC2CCC1CN2C (stereo in doubt; anti)
4.76

====

# measurement_target: 5-hydroxytryptamine receptor 4 (Cavia porcellus, UniProt O70528)
# Sequence (O70528 whole entry): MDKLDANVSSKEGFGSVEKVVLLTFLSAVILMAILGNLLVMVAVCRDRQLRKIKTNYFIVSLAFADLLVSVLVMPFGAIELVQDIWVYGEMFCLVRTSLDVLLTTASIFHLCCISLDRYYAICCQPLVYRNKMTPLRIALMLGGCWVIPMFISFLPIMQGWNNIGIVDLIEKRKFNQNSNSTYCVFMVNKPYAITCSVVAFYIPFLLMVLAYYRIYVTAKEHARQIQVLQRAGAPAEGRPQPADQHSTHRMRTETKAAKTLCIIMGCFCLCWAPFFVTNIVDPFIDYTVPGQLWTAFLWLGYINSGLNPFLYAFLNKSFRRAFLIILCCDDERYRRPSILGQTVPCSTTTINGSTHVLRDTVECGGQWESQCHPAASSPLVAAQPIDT
# procedure_text: Binding affinity towards 5-HT4 receptor in striatum membranes of guinea-pig brain was evaluated
# Format: cell membranes, Membrane
Hi there, I'd appreciate the recorded IC50 for every entry that follows.

GET /values?readout=IC50&system=5-hydroxytryptamine receptor 4 (Cavia porcellus, UniProt O70528)&item= COc1cc(N)c(Cl)cc1C(=O)NC1CC2CCC1CN2C (stereo in doubt; syn)
1000 nM

GET /values?readout=IC50&system=5-hydroxytryptamine receptor 4 (Cavia porcellus, UniProt O70528)&item= COc1cc(N)c(Cl)cc1C(=O)OC1CC2CCC1N(C)C2 (stereo in doubt; syn)
> 1000 nM

GET /values?readout=IC50&system=5-hydroxytryptamine receptor 4 (Cavia porcellus, UniProt O70528)&item= CN1C2CCCC1CC(NC(=O)c1nn(C)c3ccccc13)C2 (centres undefined)
> 1000 nM

GET /values?readout=IC50&system=5-hydroxytryptamine receptor 4 (Cavia porcellus, UniProt O70528)&item= COc1cc(N)c(Cl)cc1C(=O)NC1CC2CCC1N(C)C2 (centres undefined)
> 1000 nM

====

# measurement_target: Serotonin 3 (5-HT3) receptor (Rattus norvegicus, UniProt P35563+Q9JJ16)
# Sequence (P35563 whole entry): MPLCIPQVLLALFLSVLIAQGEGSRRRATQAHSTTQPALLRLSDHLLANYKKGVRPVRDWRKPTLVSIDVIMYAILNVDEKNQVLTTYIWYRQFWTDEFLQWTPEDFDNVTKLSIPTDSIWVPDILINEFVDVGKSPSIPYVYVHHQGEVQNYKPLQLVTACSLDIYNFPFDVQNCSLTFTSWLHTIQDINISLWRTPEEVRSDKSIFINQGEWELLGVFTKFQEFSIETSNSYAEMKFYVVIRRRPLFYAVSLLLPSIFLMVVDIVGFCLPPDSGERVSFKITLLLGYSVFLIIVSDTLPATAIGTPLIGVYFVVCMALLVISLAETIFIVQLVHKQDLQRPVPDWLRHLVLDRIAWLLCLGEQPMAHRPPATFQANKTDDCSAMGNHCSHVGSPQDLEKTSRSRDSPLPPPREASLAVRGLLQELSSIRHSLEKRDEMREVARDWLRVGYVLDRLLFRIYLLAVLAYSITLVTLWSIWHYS
# Sequence (Q9JJ16 whole entry): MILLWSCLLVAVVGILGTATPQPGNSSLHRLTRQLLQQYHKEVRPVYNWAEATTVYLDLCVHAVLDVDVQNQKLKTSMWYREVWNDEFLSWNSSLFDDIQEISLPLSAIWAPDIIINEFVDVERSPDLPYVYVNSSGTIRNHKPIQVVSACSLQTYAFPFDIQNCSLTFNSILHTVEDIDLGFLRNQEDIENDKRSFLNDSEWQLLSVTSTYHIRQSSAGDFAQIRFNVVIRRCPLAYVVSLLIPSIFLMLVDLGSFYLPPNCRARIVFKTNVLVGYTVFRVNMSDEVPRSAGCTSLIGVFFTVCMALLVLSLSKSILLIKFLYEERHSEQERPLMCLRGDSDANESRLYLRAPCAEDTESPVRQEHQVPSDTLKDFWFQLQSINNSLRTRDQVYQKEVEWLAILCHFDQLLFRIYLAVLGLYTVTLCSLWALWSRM
# procedure_text: Binding affinity towards rat 5-hydroxytryptamine 3 receptor was evaluated
# Assay type: protein-complex assay
property_measured: Ki (nM)
Please state the figure in nM; there is no need to write the unit.

Need Ki, item CN1[C@@H]2CC[C@H]1C[C@@H](OC(=O)c1c[nH]c3ccccc13)C2 [TROPISETRON]
1.55
